The origin of these recorded values is paper PMC2756588.

Items are presented alongside their recorded SPOT intensity.
Target: Myo3, P36006
Assay: SPOT array
Conditions: median of control spots 468
Parameter Measured: SPOT intensity

>>> print(df.to_string())
            binder  data_value
0  PAPPPPPRASRPTPN           0
1  FVLRYYILIPHEQWD           0
2  QNTPPLPPKPKSPHL           0
3  PPPPPPPPPPPLPQS         557
4  SRSKPLPLTPNSKYN           0
5  HGKRRAPLLLAKLDV           5
